Origin of the recorded values: PubChem BioAssay (NCI)

Tested on: MDA-MB-468 breast
Assay: NCI tumour cell line growth inhibition, 48 h

- molecule: "CC1(C)N=C(N)N=C(N)N1c1ccc(CCCC(=O)Nc2ccc(S(=O)(=O)F)cc2)cc1"
  TGI: "> 100 µM"
- molecule: "Cn1c(=O)c(-c2ccccc2Cl)cc2cnc(NC3CCOCC3)nc21"
  TGI: "> 25 µM"
- molecule: "CC[C@H](C)[C@H](NC(=O)[C@H]1CCCCN1C)C(=O)N(C)[C@H](CCc1nc(C(=O)N[C@@H](Cc2ccccc2)C[C@H](C)C(=O)O)cs1)C(C)C"
  TGI: "> 25 µM"
